System: K4 kissing-loop RNA reporter;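 further: bound reporter read as fluorescence of individual clusters on recovered sequencing chips by microscopy, with normalized cluster intensities fitted with a binding model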
Assay: apparent KD of K4 kissing-loop reporter; higher = weaker reporter binding
Settings: Eterna round: R107; input ligand: tryptophan 2.4 mM
outcomeMeasure: apparent KD of K4 kissing-loop reporter

AAGUGUGUGGCGGCCGCCACUAGAAUCCAGUGAUGUUGGAGAUAUCACGUAAGUGAUAUCCAUCAUAGGACCGGGCCAUAUAGAA [Same State - Tryptophan B (Freestyle 18)] : 0.755 µM
GGAAAGCCAGUGAUGUUGGCAUAAACUGAAGGAGCGCGUGAAAACGCAGGUAGGUCGCAGAACCUUGCCAACUAUAUUAUUUACC [Ex Arginine A K4 21] : 0.135 µM
AUUCGUUUAUGUGAUACCAGACUUUGCAGUGAUGUUGCAUUAAUUAAAGAUGUUUAGUUUGUCCCUUGGCAGCACUAUUUAUUUA [JR_SSTheophyB_Sub002] : 0.0389 µM
GCAGUGAUGUUGCGGAUGUACAGUGGAGUGCGAGGACCGGUACGGCCGCCACUCGUACAGAACAAGCUAAUAUAUCGAUAGGUGA [X] : 0.157 µM
GCAGUGAUGUUGCGAAUCGGCCAUGAUACAGAGGAUAUCGUGCCUUCGAGAAGGUUGUAUAGAGGAUACGAUAUUAUAAAUGACG [Same State FMN A GF 1] : 0.348 µM
AAAUGUUUGUAUUUGAACAAUUUCCUUAGAGAGGAUAUUGGUAAUACAAGAAGGCUCUGAUGGGAGUGAUGUUCCCAUAACGCGG [Exclusion FMN A GF14] : 0.091 µM

Answer for every listed entry: what is its apparent KD of K4 kissing-loop reporter? The entries follow.
1. AGUGGACGUGUUCGGAGUGAUGUUCCGGAUACCAGACACGAAAGUGUCCCUUGGCAGCCGGAGUGAUGUUCCGGCGUUCACUAAA [Omei KL Theo A Exc B v2]
2. CGUUUAUAGCAGGAUACCAGUACGGAUAAGGUACGUUAAUAGUAGAGUGAUGUUCUAAAGUACCCUUGGCAGCUUAGAGUGAGUG [#20 K4 Theophylline B Exclusion]
3. GCCGUAGAUUGAAGGAGCGGCUUCAUCAAAUCUCUUGCCCGCACCAGUGAUGUUGGUGUUAGCCAGGUAGGUCGCAAUCUACGGC
4. UGAUACCAGACUGAUACCAGCCAGUGAUGUUGGCAAUAUCCAAGGUGAGUCAAAGACUCGGGCCCUUGGCAGCAGUCUGGUAUCU [TheoBX 7 #SwitchBubble #StaticStem]

[out]
1: 0.439 µM; 2: 0.0922 µM; 3: 0.465 µM; 4: 0.135 µM

----------
System: MS2 coat protein
Assay: apparent KD of MS2 coat protein; designed switch direction (-1 OFF switch, 1 ON switch): -1; higher = weaker reporter binding
Details: input ligand: none
Task for the reader: assign each of the following sequences its reported apparent KD of MS2 coat protein.
Numbers only, in nM.

For orientation, consider the following solved cases.
UACAGUCAUCCUUAUUGUUACAUGAGGAUCACCCAUGUUAGUAUAGUUAAGUUAUGUGAGUUUGUUGUUCGUUUUAU [JR_STOV1_v2_Sub078] (Eterna round: R97, puzzle: Sensor, turn-off variant 1) : 146
UUGGACGGAGGAUAUGCAGCGAGUAAUACGAUCGAUCCAAAACAUGAGGAUCACCCAUGUAGAAGGCUGACCAA [Eternabot (L1) Solution 11] (Eterna round: R97, puzzle: Exclusion 2) : 71.2

Answer for every listed entry: what is its apparent KD of MS2 coat protein? The entries follow.
1. UAACAGUAAGGAUAUCCAGAUCCAGACAUGAGGAUCACCCAUGUCAUAUACCUUUGACACGGAGAAGGUACGAAAA [EX5 A.4] (Eterna round: R97, puzzle: Exclusion 5)
2. UUAAUAAUGUAAGGAUAUGCGUGGCGAAGCUAUGCAGAAGGUACAUGAGGAUCACCCAUGUGGUCCGUCUGCGUACAGAUGGAA [JL Eng1 1.08 mod] (Eterna round: R96, puzzle: Exclusion NG 1)

[out]
1: 52.2; 2: 365
